- Tested on: Staphylococcus aureus NCTC 10788
readout-label: MIC (µM)

molecule="CC[C@H](C)[C@H](NC(=O)[C@H](C)NC(=O)[C@H](CO)NC(=O)[C@@H](NC(=O)[C@H](C)NC(=O)[C@H](CCCCN)NC(=O)[C@@H]1CCCN1C(=O)[C@@H](NC(=O)[C@H](CC(C)C)NC(=O)[C@H](CO)NC(=O)[C@H](CC(C)C)NC(=O)[C@@H](N)Cc1ccccc1)[C@@H](C)CC)[C@@H](C)CC)C(=O)N[C@@H](CO)C(=O)N[C@@H](C)C(=O)N[C@@H](CC(C)C)C(=O)N[C@H](C(=O)N[C@@H](CC(N)=O)C(=O)N[C@@H](Cc1cnc[nH]1)C(=O)N[C@@H](Cc1ccccc1)C(N)=O)[C@@H](C)CC [FLSLIPKAISAISALINHF]" test_target="Staphylococcus aureus NCTC 10788" result_units=µM obs_value=2
